Tested on: Staphylococcus aureus
Assay remarks: In vivo efficacy against Staphylococcus aureus NCTC 10649M in mouse protection test after p.o. administration.
Assay type: functional
Experimental setup: Staphylococcus aureus, po; read-out: ED50
Metric name: ED50 (mg/kg)
Answer with a number only, understood to be in mg/kg.

| Compound | Result units | Obs value |
| --- | --- | --- |
| CN[C@@H]1CN(c2c(F)cn3c(=O)c(C(=O)O)cc(C4CC4)c3c2C)C[C@H]1C (stereo in doubt; 3v) | mg/kg | 6.3 |
| CCN[C@H]1CCN(c2c(F)cn3c(=O)c(C(=O)O)cc(C4CC4)c3c2C)C1 | mg/kg | 7.7 |

// below: ED50 requested for another compound
Form: Entry = Cc1c(N2CC[C@H](NC3CC3)C2)c(F)cn2c(=O)c(C(=O)O)cc(C3CC3)c12 | System = Staphylococcus aureus | ED50 = ____
25
